# target system: CD137 on human PBMC (anti-CD3 stimulated) (human, UniProt Q07011 24-255)
# Sequence (Q07011 24-255): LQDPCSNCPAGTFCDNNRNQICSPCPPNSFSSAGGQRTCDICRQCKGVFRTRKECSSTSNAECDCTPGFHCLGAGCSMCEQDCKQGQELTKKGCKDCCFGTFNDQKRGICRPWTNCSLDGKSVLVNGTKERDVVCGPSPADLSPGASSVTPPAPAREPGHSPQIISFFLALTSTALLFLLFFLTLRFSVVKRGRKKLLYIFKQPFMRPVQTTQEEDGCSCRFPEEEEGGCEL
# procedure text: cell-based or functional assay
Starred links: 1 amine or outer side, 2 acyl side, 3 side chain; linkers in the order of their positions; H or OH if unused. Positions of bridges follow the written chain, without caps; N, C: chain ends. Non-standard residues stand in square brackets, D forms with d. Chains are numbered I, II in the order given. No end group written: not given here. *: point of attachment. TATA = O=C(CC[*:1])N1CN(C(=O)CC[*:2])CN(C(=O)CC[*:3])C1; 1Nal = N[C@@H](Cc1cccc2ccccc12)C(=O)O; Hyp = O=C(O)[C@@H]1C[C@@H](O)CN1; hArg = N=C(N)NCCCC[C@H](N)C(=O)O; tBuAla = CC(C)(C)C[C@H](N)C(=O)O; Nle = CCCC[C@H](N)C(=O)O; Pent4ynoyl = C#CCCC(=O)*; Dap = NC[C@H](N)C(=O)O; βAla = NCCC(=O)O; Sar = CNCC(=O)O
metric: max IFN-γ (pg/ml), human PBMC co-culture with 4T1-D02(Nectin4+) (pg/mL)
Reply numerically in pg/mL, unit not repeated.

// recorded max IFN-γ (pg/ml), human PBMC co-culture with 4T1-D02(Nectin4+) for heterotandem bicyclic peptide complex BCY10571 (linker I:1-I:5-I:15, II:1-II:8-II:15 via TATA; not fully specified (C-terminus, bridges); also: chains joined by PEG5 linker on chain 1 N-terminus, triazole to K(PYA)) peptide 1: CP[1Nal][dD]CM[hArg]DWSTP[Hyp]WC peptide 2: Ac-C[tBuAla]PK(Pent4ynoyl)[dA]PYCFADPY[Nle]CA : 18300

Record summary for heterotandem bicyclic peptide complex BCY8854 (BCY7732: N-terminal acetyl; Nle12; C-terminal Dap (diaminopropionic acid) bearing the linker; Ci, Cii, Ciii on TATA scaffold; BCY8846: N-terminal [PYA]-[B-Ala]-[Sar10]- (linker on PYA); 1Nal2, dD3, HArg5, HyP11; Ci, Cii, Ciii on TATA scaffold) peptide 1: CPXDCMXDWSTPXWC peptide 2: ACIEEGQYCFADPYXC : reported max IFN-γ (pg/ml), human PBMC co-culture with 4T1-D02(Nectin4+) = 16000

In plain terms, heterotandem bicyclic peptide complex BCY10000 (linker I:11-I:15-I:25, II:1-II:8-II:15 via TATA; not fully specified (C-terminus); numbers in words are those of the source; also: linker to a chain's N/C-terminus via PEG12) peptide 1: {Pent4ynoyl-βAla}-[Sar][Sar][Sar][Sar][Sar][Sar][Sar][Sar][Sar][Sar]CP[1Nal][dD]CM[hArg]DWSTP[Hyp]WC peptide 2: Ac-C[tBuAla]PE[dA]PYCFADPY[Nle]C[Dap] has a documented max IFN-γ (pg/ml), human PBMC co-culture with 4T1-D02(Nectin4+) of 19600

Measured max IFN-γ (pg/ml), human PBMC co-culture with 4T1-D02(Nectin4+), heterotandem bicyclic peptide complex BCY10572 (linker I:1-I:5-I:15, II:1-II:8-II:15 via TATA; not fully specified (C-terminus, bridges); also: chains joined by PEG5 linker on chain 1 N-terminus, triazole to D-Lys(PYA)) peptide 1: CP[1Nal][dD]CM[hArg]DWSTP[Hyp]WC peptide 2: Ac-C[tBuAla]PE[dK](Pent4ynoyl)PYCFADPY[Nle]CA : 17900

Cited source for all entries: patent US20190307836A1
